biological target: cAMP-dependent protein kinase catalytic subunit alpha (Homo sapiens); assay type: functional
Active and inactive are the calls of the source.
Possible outcomes: active, inactive

[[record]]
compound = "CN(C)CC1CCn2cc(c3ccccc32)C2=C(C(=O)NC2=O)c2cn(c3ccccc23)CCO1 (centres undefined)"
category_label = "active"

[[record]]
compound = "O=C(Nc1cccc(C2Nc3ccc4ccccc4c3C3C=CCC32)c1)c1ccc(F)cc1 (centres undefined)"
category_label = "active"

[[record]]
compound = "O=C1NCc2ccc(-c3ccccc3)cc21"
category_label = "inactive"

[[record]]
compound = "Cc1ccc(-c2cc(-c3cc(Br)ccc3O)[nH]c(=O)c2C#N)s1"
category_label = "active"

